# target system: P2X3 (Homo sapiens, UniProt P56373)
# Sequence (P56373 1-397): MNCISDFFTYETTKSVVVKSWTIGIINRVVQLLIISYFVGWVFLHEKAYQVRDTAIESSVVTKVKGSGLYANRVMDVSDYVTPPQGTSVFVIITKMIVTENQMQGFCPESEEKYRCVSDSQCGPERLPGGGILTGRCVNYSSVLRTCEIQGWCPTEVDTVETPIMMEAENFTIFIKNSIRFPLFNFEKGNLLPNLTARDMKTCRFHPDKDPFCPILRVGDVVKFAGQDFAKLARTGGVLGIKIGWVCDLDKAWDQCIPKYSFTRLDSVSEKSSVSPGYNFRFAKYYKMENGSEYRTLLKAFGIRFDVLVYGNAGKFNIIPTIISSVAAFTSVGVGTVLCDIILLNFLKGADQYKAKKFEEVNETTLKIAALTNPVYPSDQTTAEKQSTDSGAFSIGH
# assay remarks: P2X3 Antagonist Assay (FLIPR calcium, Fluo-8, HEK293 cells transfected with human ion channel cDNAs, αβ-meATP stimulation)
# experimental context: antagonist mode, αβ-meATP 3 μM
pIC50: −log10 of the molar value.
experimental endpoint: pIC50

1) CNC(=O)c1ccc(-c2nc3cc(C(F)F)ccn3c2C[C@H]2CN(C(=O)OC)CCO2)c(Cl)c1 [Compound A32] : > 7.00
2) COCCNC(=O)c1ccc(-c2nc3cc(Cl)ccn3c2C[C@H]2CN(C(=O)OC)CCO2)c(F)c1 [Compound A73] : < 6.00
3) CNC(=O)c1cc(F)c(-c2nc3cc(C)ccn3c2C[C@H]2CCCN(C(=O)OC)C2)c(F)c1 [(R)-A19] : > 7.00
4) COC(=O)N1CCO[C@@H](Cc2c(-c3ccc(S(C)(=O)=O)cc3F)nc3cc(C)ccn23)C1 [Compound A61] : 6.00 to 7.00
5) CNC(=O)c1cc(F)c(-c2[nH]c3cc(C)cnc3c2C[C@H]2CN(C(=O)OC)CCO2)c(F)c1 [Compound A26] : < 6.00
6) CNC(=O)c1cc(C)c(-c2nc3cc(C(F)F)ccn3c2C[C@H]2CN(C(=O)OC)CCO2)cc1F [Compound A44] : > 7.00
7) CNC(=O)c1ccc(-c2nc3cc(Cl)ccn3c2C[C@H]2CN(C(=O)OC)CCO2)c(C)c1 [Compound A7] : > 7.00

* * *

# target system: P2X3 (Homo sapiens, UniProt P56373)
# Sequence (P56373 1-397): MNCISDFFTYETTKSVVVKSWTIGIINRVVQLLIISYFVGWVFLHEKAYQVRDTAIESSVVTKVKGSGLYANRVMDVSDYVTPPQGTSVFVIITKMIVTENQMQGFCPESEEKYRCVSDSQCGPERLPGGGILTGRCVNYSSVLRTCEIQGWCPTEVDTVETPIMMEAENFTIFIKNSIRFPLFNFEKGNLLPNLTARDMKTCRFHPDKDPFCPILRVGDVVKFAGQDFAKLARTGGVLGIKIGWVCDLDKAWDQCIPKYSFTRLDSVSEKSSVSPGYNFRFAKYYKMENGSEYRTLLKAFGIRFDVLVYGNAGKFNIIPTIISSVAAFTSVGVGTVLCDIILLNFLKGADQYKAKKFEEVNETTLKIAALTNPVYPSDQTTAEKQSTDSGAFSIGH
# assay remarks: P2X3 Antagonist Assay (FLIPR calcium, Fluo-8, HEK293 cells transfected with human ion channel cDNAs, αβ-meATP stimulation)
# experimental context: antagonist mode, αβ-meATP 3 μM
pIC50: −log10 of the molar value.
Here, each record is paired with measured pIC50 data.
experimental endpoint: pIC50

1) CNC(=O)c1cc(F)c(-c2[nH]c3cccc(C)c3c2C[C@H]2CN(C(=O)OC)CCO2)c(F)c1 : < 6.00
2) CNC(=O)c1cc(F)c(-c2nc3cc(C)ccn3c2CC2CN(C(=O)OC)CCCO2)c(F)c1 (single isomer, unassigned) [A14 (Peak 2)] : > 7.00
3) COC(=O)N1CCO[C@@H](Cc2c(-c3ccc(C(=O)N4CCCC4)cc3F)nc3cc(Cl)ccn23)C1 : 6.00 to 7.00
4) CCC(=O)N1CCO[C@@H](Cc2c(-c3ccc(C(=O)NC)cc3F)nc3cc(Cl)ccn23)C1 : 6.00 to 7.00
